Assay: Solubility in different dissolution media (HPLC)
Details: simulated intestinal fluid, 25 °C, pH 6.8, fassgf or other biorelevant, thermodynamic from solid
MEASURED PROPERTY: solubility at 24 h (µg/mL)
// return numeric value only (unit: µg/mL, not printed)

Inquiry: Write down solubility at 24 h measured for item CCCCCCCCCCCCCCCC(=O)NCCO [Raw PEA, Palmitoylethanolamide]
Reply text: 0.22

====

Experiment: Solubility in different dissolution media (HPLC)
Conditions: demineralized water, 25 °C, water, thermodynamic from solid
MEASURED PROPERTY: solubility at 24 h

Inquiry: Please look at this molecule and report its solubility at 24 h: CCCCCCCCCCCCCCCC(=O)NCCO [Raw PEA, Palmitoylethanolamide]
Reply text: < 0.1 µg/mL
